- TARGET ENTITY: Sodium/glucose cotransporter 2 (Homo sapiens)
- RUN DESCRIPTION: Inhibition of full-length human SGLT2 expressed in CHO cells assessed as decrease in [14C]-methyl alpha-D-glucopyranoside uptake at 0.5 uM after 1 hr by liquid scintillation counting method
- Assay type: cell-based
Documented inhibition across a set of compounds
OBSERVABLE: inhibition

> print(dat)
                  compound.structure.string                             target.entity  observable  result
1  CCOc1ccc(Cc2cc([C@@H]3O[C@H](CO)[C@@H](O)[C@H](O)[C@H]3O)ccc2Cl)cc1  Sodium/glucose cotransporter 2 (Homo sapiens)  inhibition    103%
2  Cc1ccc(Cc2cc([C@@H]3O[C@H](CO)[C@@H](O)[C@H](O)[C@H]3O)c(O)cc2Cl)cc1  Sodium/glucose cotransporter 2 (Homo sapiens)  inhibition    101%
3  OC[C@H]1O[C@@H](c2cc(Cc3cc4ccccc4s3)c(Cl)cc2O)[C@H](O)[C@@H](O)[C@@H]1O  Sodium/glucose cotransporter 2 (Homo sapiens)  inhibition   97.5%
4  OC[C@H]1O[C@H]2c3cc(Cc4cc5ccccc5s4)c(Cl)cc3O[C@H]2[C@@H](O)[C@@H]1O  Sodium/glucose cotransporter 2 (Homo sapiens)  inhibition   48.7%
